target: IDO (SKOV3 human ovarian adenocarcinoma cells, IFN-γ induced) (Homo sapiens, UniProt P14902); construct: IDO expression was induced in the SKOV3 cells by the addition of 500 ng/ml IFN-γ; endogenous in cells; host or cells: SKOV3 human ovarian adenocarcinoma cells, induced with IFN-γ; assay: SKOV3 Kynurenine cell based assay; conditions: IDO induced by 500 ng/ml IFN-γ, 500 μM L-tryptophan, 48 hours
Sequence (P14902 whole entry): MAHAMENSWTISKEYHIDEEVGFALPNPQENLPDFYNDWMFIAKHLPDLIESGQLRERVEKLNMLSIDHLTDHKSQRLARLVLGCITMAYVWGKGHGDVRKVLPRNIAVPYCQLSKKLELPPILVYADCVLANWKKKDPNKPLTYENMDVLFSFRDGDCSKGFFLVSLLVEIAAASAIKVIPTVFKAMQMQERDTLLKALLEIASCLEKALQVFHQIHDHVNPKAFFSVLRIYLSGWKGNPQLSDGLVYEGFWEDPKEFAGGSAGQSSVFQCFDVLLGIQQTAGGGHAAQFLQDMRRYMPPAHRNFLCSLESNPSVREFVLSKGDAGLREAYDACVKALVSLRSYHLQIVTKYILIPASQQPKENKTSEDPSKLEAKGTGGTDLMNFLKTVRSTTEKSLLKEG

Compound	SKOV3 Kynurenine cell based assay pIC50
CS(=O)(=O)N1CC=C(c2c[nH]c3cnccc23)CC1	+− (+− = pIC50 <4.00)
NS(=O)(=O)N1CC=C(c2c[nH]c3cc(F)ccc23)CC1	+− (+− = pIC50 <4.00)
CS(=O)(=O)N1CC=C(c2c[nH]c3cc(F)cc(F)c23)CC1	+ (+ = pIC50 4.00-4.99)
CS(=O)(=O)N1CCC(c2c[nH]c3cc(F)c(F)cc23)CC1	+ (+ = pIC50 4.00-4.99)
CC(=O)N1CC=C(c2c(C)[nH]c3ccccc23)CC1	+ (+ = pIC50 4.00-4.99)
O=C(C1CC(=O)N(C2CCCC2)C1)N1CCC(c2c[nH]c3cc(F)ccc23)CC1 (centres unmarked)	+ (+ = pIC50 4.00-4.99)
